Data provenance is patent US7067519B2.

biological target: human orexin-1 receptor (Homo sapiens); construct: expressed in transfected cells; host or cells: CHO cells (G418 selection); assay: Intracellular calcium measurement (FLIPR), OX1 receptor antagonistic activity; assay type: cell-based; settings: CHO cells expressing human orexin-1 receptor, agonist 10 nM human orexin-A, fluo-3 calcium
Sequence (O43613 whole entry): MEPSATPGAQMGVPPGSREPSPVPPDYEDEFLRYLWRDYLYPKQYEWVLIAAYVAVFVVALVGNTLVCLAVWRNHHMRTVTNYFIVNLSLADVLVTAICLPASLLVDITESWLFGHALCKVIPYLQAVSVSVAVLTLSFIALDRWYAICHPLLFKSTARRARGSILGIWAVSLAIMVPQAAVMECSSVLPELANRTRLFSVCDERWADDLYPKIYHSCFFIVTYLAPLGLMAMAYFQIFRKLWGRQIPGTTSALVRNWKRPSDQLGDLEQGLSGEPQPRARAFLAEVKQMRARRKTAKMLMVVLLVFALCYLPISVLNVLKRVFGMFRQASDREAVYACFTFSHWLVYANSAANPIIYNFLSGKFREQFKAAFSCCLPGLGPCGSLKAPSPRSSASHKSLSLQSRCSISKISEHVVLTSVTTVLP
readout: IC50 (nM)

Some entries whose results are on file:
[
  {
    "compound": "CCc1ccccc1NC(=O)N(C1CCn2c1nc1cccc(C(F)(F)F)c1c2=O)[C@@H](C)c1ccccc1 (stereo partly drawn)",
    "readout": "IC50",
    "measurement": 28
  },
  {
    "compound": "CC(c1ccccc1)N(C(=O)Nc1ccccc1OC(F)(F)F)C1CCn2c1nc1cccc(Cl)c1c2=O (stereo not drawn)",
    "readout": "IC50",
    "measurement": 37
  },
  {
    "compound": "CCc1ccccc1NC(=O)N(C(C)c1ccccc1)C1CCCn2c1nc1cc(F)c(F)cc1c2=O (stereo not drawn)",
    "readout": "IC50",
    "measurement": 261
  },
  {
    "compound": "CCCc1ccccc1NC(=O)N(C(C)c1ccccc1)C1CCCn2c1nc1cc(F)c(F)cc1c2=O (stereo not drawn)",
    "readout": "IC50",
    "measurement": 153
  }
]

A: CCCc1ccccc1NC(=O)N(C(C)c1ccccc1)C1CCn2c1nc1cccc(Cl)c1c2=O (stereo not drawn)
B: CC(c1ccccc1)N(C(=O)Nc1ccccc1OC(F)(F)F)C1CCn2c1nc1cc(F)ccc1c2=O (stereo not drawn)
Asked: Could you point out whether the larger IC50 belongs to A or to B ? Kindly state the label of the option you pick.
Given back: B
